Field: growth. Provide a value for each of the molecules that follow.
System: MOLT-4 leukemia
Experiment: NCI-60 one-dose screen, 48 h (100 = growth as untreated, 0 = no growth, -100 = all killed)
Conditions: 10 µM unless noted
About 83,000 compounds went through this panel and 20% of them were active in at least one assay; those are over-represented in the sample as a whole.
One number for each entry, in %.

Below are worked cases with known answers.
molecule: O=C(CCCCCCN1CC(=O)N2[C@@H](c3ccc(Cl)c(Cl)c3)c3[nH]c4ccccc4c3C[C@H]2C1=O)NO
growth [%]: 8.86

molecule: CC1(C)OC2OC3C(CN)OC(c4ccccc4)OC3C2O1 (configuration not stated)
growth [%]: 5.53

List growth for every entry below, keeping the order given.
1. Cn1cnc([N+](=O)[O-])c1S(=O)(=O)Oc1ccccc1
2. CC(=O)c1ccc(N2C(=O)c3ccc(Oc4ccccc4)cc3C2=O)cc1
3. CC(C)(CCc1ccccn1)C(=O)CCCc1ccccn1
4. CCOC(=O)c1ccc(NC(=O)CSC(N)=O)cc1
5. C[Si](C)(C)C(c1ccccc1)c1ccccc1
6. CCN(CC)C(=O)O/N=C(/C)c1ccccc1

1. 76.5
2. 115
3. 101
4. 84.6
5. 81.8
6. 109

Could I get growth for every one of these entries?
1. Nc1ncnc2c1N=C(c1ccc3c(c1)OCO3)CC(c1ccc(Cl)cc1)N2 (configuration not stated)
2. CC(C)(C)c1cc(C[P+](c2ccccc2)(c2ccccc2)c2ccccc2)cc(C(C)(C)C)c1O
3. COc1ccc2nc3cc(Cl)ccc3c(NC(=O)CSc3ccc(Cl)cc3)c2c1
4. COc1cc(OC)c(C(=O)/C=C/c2cccc(OC(C)=O)c2)cc1CC=C(C)C
5. CN1CCCN(CCNc2nccc(-c3c(-c4cccc(O)c4)nc4sccn34)n2)S1(=O)=O

1. 69.4
2. -7.18
3. -52
4. 32
5. 37.8

====

Test system: NCI-H23 lung
Experiment: NCI-60 one-dose screen, 48 h (100 = growth as untreated, 0 = no growth, -100 = all killed)
Conditions: 10 µM unless noted
Compounds without any hit were thinned out: in the full panel of roughly 83,000, 20% have a hit.
readout: growth (%)
One number for each entry, in %.

molecule: CNC(=O)c1c(NC(=O)c2ccc(C(C)C)cc2)sc2c1CCC(=O)C2
growth (%): -1.47

# map each molecule to its growth
1. COc1ccc(-c2conc2-n2nc(-c3ccccc3)nc2-c2ccccc2)cc1
2. COc1cnc2c(c1)C(=O)c1c-2n(CCCN2CCN(C)CC2)c(=O)c2cc(Cl)ccc12
3. O=C1CCCN1C(O)CCN(Cc1ccccc1)Cc1ccc(Cl)cc1 (stereo not given)
4. COc1ccccc1CNCCCN1C(=O)c2ccc3c4c(ccc(c24)C1=O)C(=O)N(CCCOCCCCOCCCN)C3=O

1: 98.3; 2: 47.9; 3: 103; 4: -67.6

====

System: SF-268 CNS
Test: NCI-60 one-dose screen, 48 h (100 = growth as untreated, 0 = no growth, -100 = all killed)
Settings: 10 µM unless noted
This is part of a sample that, as a whole, favours compounds with a hit. Of some 83,000 tested, about 20% had one in any assay.
What growth was measured for each of the following?
Answers are plain numbers, in %.

Examples with their reported growth follow.
molecule: CS(=O)(=O)c1ccc(C(=O)N/N=C/c2ccc3c(c2)OCO3)cc1
unit label: %
growth: 104

molecule: COc1cc(C2CC(c3ccc(Cl)cc3)=NN2C(C)=O)ccc1Oc1nc2c(c(=O)n(C)c(=O)n2C)n1C (configuration not stated)
unit label: %
growth: 56.8

molecule: CC(NC(=O)c1ccccc1)C(=O)Nc1ccccc1 (configuration not stated)
unit label: %
growth: 108

molecule: Cc1cc2nc(CN)[nH]c2cc1C
unit label: %
growth: 106

molecule: N=C(N)c1ccc(-c2ccc(-c3cccs3)s2)cc1F
unit label: %
growth: -77.1

Quick batch: growth for everything below.
1. C[N+](C)(C)CC(=O)N/N=C\c1ccco1
2. CCOC(=O)C(CCCCC(NC(C)=O)(C(=O)OCC)C(=O)OCC)(NC(C)=O)C(=O)OCC
3. CC(C)(C)c1cc(C[P+](c2ccccc2)(c2ccccc2)c2ccccc2)cc(C(C)(C)C)c1O
4. N/C(=N\OC(=O)c1ccccc1)C(C(=O)NOC(=O)c1ccccc1)C1CCCCC1 (configuration not stated)
5. COc1cc2ccc(C(C)=O)cc2cc1OC
6. C#CCNc1nc(NCCNC(=O)CCl)nc(N(C)CCCCc2ccccc2)n1

1: 105; 2: 100; 3: 19.4; 4: 31.9; 5: 101; 6: 94

Need growth of CC1OC(n2c3ccccc3c3c4c(c5c6ccccc6[nH]c5c32)C(=O)N(CCN[C@H]2CCC[C@@H]2N)C4=O)CC(O)C1O (some centres not stated) , thanks. 33.5

====

For each of the molecules below, state its growth.
Tested on: HCC-2998 colon
Assay: NCI-60 one-dose screen, 48 h (100 = growth as untreated, 0 = no growth, -100 = all killed)
Conditions: 10 µM unless noted
About 83,000 compounds went through this panel and 20% of them were active in at least one assay; those are over-represented in the sample as a whole.
Numbers only, in %.

Example molecules with recorded growth:
molecule: CS(=O)(=O)c1ccc(C(=O)N/N=C/c2ccccc2Cl)cc1
target: HCC-2998 colon
unit label: %
growth: 95.8
--
molecule: O=C(/C=C/c1ccco1)c1ccccc1O
target: HCC-2998 colon
unit label: %
growth: 84.4
--
molecule: O=c1c2cc(Cl)ccc2oc2ccc(OCCCCCN3CCCCCC3)cc12
target: HCC-2998 colon
unit label: %
growth: 88.5
--
molecule: O=S1(=O)NCCN1CCNc1nccc(-c2c(-c3cccc(O)c3)nc3sccn23)n1
target: HCC-2998 colon
unit label: %
growth: 113
--
molecule: CCCCCCCCN(CCCCCCCC)C(=O)CCl
target: HCC-2998 colon
unit label: %
growth: 103
--
molecule: CS(=O)(=O)c1ccc(C(=O)N2N=C(c3ccccc3)CC2c2ccc3c(c2)OCO3)cc1 (stereo unspecified)
target: HCC-2998 colon
unit label: %
growth: 99.3
--
molecule: CCC1N=C(N)N=C(N)N1c1ccc(Cl)cc1 (stereo unspecified)
target: HCC-2998 colon
unit label: %
growth: 95.4
--
molecule: CC(C)(c1ccccc1)c1cc(O)c(C(C)(C)c2ccccc2)cc1O
target: HCC-2998 colon
unit label: %
growth: 61

// for each molecule below, give its growth
1. CCCCCCCCCCCC1=NC(C)(C)CN1C(C)C
2. Cc1ccc(C)c2c1SC1=NNC(Oc3ccc(Cl)cc3)=C(C#N)C(=N)N12
3. Cc1c(C(=O)Nc2ccccc2F)sc2c(=O)[nH]cnc12

-58.5
105
93.2

====

Tested on: SF-295 CNS
Test: NCI-60 one-dose screen, 48 h
Details: 10 µM unless noted
About 83,000 compounds went through this panel and 20% of them were active in at least one assay; those are over-represented in the sample as a whole. Active and inactive are the calls of the source. How the source made its calls: active means growth percent below 10; inactive means the rest.
Field 'call' accepts t = active, f = inactive

Worked examples, 2 molecules total:
molecule: COc1cccc(/C=N\Nc2ccc([N+](=O)[O-])cn2)c1O
cat: t
//
molecule: C=CCN(CC#N)CC=C
cat: f

Please state the recorded outcome for this molecule: `CCN(CC)CCNC(=O)n1cc(-c2ccncc2)c(-c2ccc(Cl)c(OC)c2)n1` f

I would be grateful if you could indicate the recorded call for COc1ccc(C(=O)N2N=C(c3ccc(F)cc3)CC2c2cn(-c3ccccc3)nc2-c2ccccc2)cc1 (stereo not given) . f

What did the test return for `CC(C)CCSc1nc(-c2ccc(F)cc2)c(C#N)c(N2CCN(C)CC2)n1` ? f

Hi, do you know how CCN(CC)CCCC(C)Nc1ccnc2ccc(Oc3ccccc3)cc12 (stereo not given) came out in this test? f

Record request — test call for COc1ccc2c(c1)OC1=C(C(=O)OC1)C2c1cc(OC)c2c(c1)OCCO2 (stereo not given) t

====

Tested on: MALME-3M melanoma
Experiment: NCI-60 one-dose screen, 48 h
Conditions: 10 µM unless noted
The panel holds about 83,000 compounds, 20% with a hit somewhere; the sample as a whole holds those more often. Activity calls are given as the source filed them. The calls were made as follows: active = growth percent below 10; inactive = the rest.
Please reply with one of these outcomes: yes for active, no for inactive

Record lookup: outcome of this test for `Cc1ccccc1NC(=O)c1sc2nc3c(cc2c1N)C(=O)CCC3` ? no

Name the outcome recorded for `c1csc(-c2cnc3nonc3n2)c1` in the assay. no

Write down the call the test reported for this compound. Item: `CCN(CC)c1ccc(/C=N/N=C(N)N)cc1` no

Tell me the recorded outcome of this test for `CN1CCC2(CC1)N=C(SCC(=O)Nc1cnc3ccccc3c1)C(c1ccc(Br)cc1)=N2` . yes

Would you mind telling me which call this test gave Nc1ncnc2c1N=C(c1ccc3c(c1)OCO3)CC(c1ccc(Cl)cc1)N2 (configuration not stated) ? no

Tell me the recorded outcome of this test for `COC(=O)[C@H](Cc1cn(C)cn1)NC(=O)[C@H](CC(C)C)NC(=O)Nc1cc(C(F)(F)F)cc(C(F)(F)F)c1` . yes

What did this assay record as the result for `O=C1SCN(Cc2ccccc2)CN1Cc1ccccc1` ? no

What is the recorded call for this compound in the test? `FC(F)(F)c1cc(-c2nnc3n2N=C(Cl)CS3)cc(C(F)(F)F)c1` no

Kindly provide the recorded test outcome for the following compound: `COc1cc(Nc2ncccc2/C=C/C(=O)c2cc(OC)c(OC)c(OC)c2)cc(OC)c1OC` no
